Data credit: patent US20120316071A1

The entries below are paired with their reported ECL signal.
Tgt: T1, Recombinant Human DLL4 (human, UniProt Q9NR61 27-524)
T1 construct: Bought recombinant human DLL4 (R&D Systems 1506-D4/CF); also called delta-like protein 4; rHuman DLL4
Method Notes: ECL (MSD) binding assay, Fab on immobilised recombinant human DLL4; Fab concentration not given in the table
No unit in the answer, please; the number alone is enough.

Which value of ECL signal has been reported for Fab VH1-46_IGHD6-6*01_IGHJ1*01 S102A/S103P/S104F/H111F N52L/S54T/G56H & L6_IGKJ1*01 S28N/S30D/S31H (Fab, V domains shown, Fab expressed in E. coli: VH joined to CH1 from Plasmid A (His6 and Flag tags), VL joined to kappa CL from Plasmid C; also called H:APFF LTH & L:NDH) VH: QVQLVQSGAEVKKPGASVKVSCKASGYTFTSYYMHWVRQAPGQGLEWMGIILPTGHSTSYAQKFQGRVTMTRDTSTSTVYMELSSLRSEDTAVYYCAREEYAPFSAEYFQFWGQGTLVTVSS VL: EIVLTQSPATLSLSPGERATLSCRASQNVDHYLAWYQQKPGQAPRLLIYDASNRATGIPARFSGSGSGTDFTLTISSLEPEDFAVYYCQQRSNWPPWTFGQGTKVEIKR in the records?
6020

Continuing:
Which value of ECL signal has been reported for Fab VH1-46_IGHD6-6*01_IGHJ1*01 S102A/S103P/S104F/H111F I51A/N52L/S54T/G56H & L6_IGKJ1*01 S28N/S30D/S31H S52L/A55G (Fab, V domains shown, Fab expressed in E. coli: VH joined to CH1 from Plasmid A (His6 and Flag tags), VL joined to kappa CL from Plasmid C; also called H:APFF ALTH & L:NDH LG) VH: QVQLVQSGAEVKKPGASVKVSCKASGYTFTSYYMHWVRQAPGQGLEWMGIALPTGHSTSYAQKFQGRVTMTRDTSTSTVYMELSSLRSEDTAVYYCAREEYAPFSAEYFQFWGQGTLVTVSS VL: EIVLTQSPATLSLSPGERATLSCRASQNVDHYLAWYQQKPGQAPRLLIYDALNRGTGIPARFSGSGSGTDFTLTISSLEPEDFAVYYCQQRSNWPPWTFGQGTKVEIKR in the records?
1760
